System: MHC-I expression by COLO 205 cells
Test: cells
Format: cell-based, human
Conditions: Homo sapiens, COLO 205, 48 h, MHC-I expression, COLO 205 cells, compounds at 35 μM, 48 hours, flow cytometry (W6/32); read-out: Induction Fold
readout.label: fold induction at 35 µM
Field format: numeric only.

Field: example entries. Status: answers known.
compound=CCCCCn1cc(C(=O)Oc2ccc3cccnc3c2)c2ccccc21 measured_result=4.08
compound=COC(=O)[C@@H](NC(=O)c1ccc2c(c1)c1ccccc1n2CC1CCCCC1)C(C)(C)C measured_result=1.69

In: What does the data say about its fold induction at 35 µM? Entry: `CCOC(=O)[C@@H](NC(=O)c1nn(CCCCCF)c2ccccc12)C(C)C`
Out: 1.7

In: Quick check: fold induction at 35 µM of `CCCCCn1cc(C(=O)c2cccc(OC)c2)c2ccccc21` ?
Out: 2.9

In: Fill in: fold induction at 35 µM of `CCCCCn1cc(C(=O)c2cccc3c(C)cccc23)c2ccccc21` is ___
Out: 1.89

In: Sample `CCCCCn1cc(C(=O)Oc2cccc3cnccc23)c2ccccc21` — what was its fold induction at 35 µM?
Out: 2.43
